# EXPERIMENTAL PROTOCOL: AUC in iv dosed rat
# Format: ADME, organism-based
# Design: route iv
# PROTOCOL CONDITIONS: in vivo
PROPERTY LABEL: AUC
Provide the measurement as a number trailed by its unit.

I have this compound here, `N[C@H]1C[C@@H](N2Cc3nn4c(C(F)(F)F)cc(C(F)(F)F)nc4c3C2)CO[C@@H]1c1cc(F)ccc1F` , and I need its recorded AUC. 3700 ng·h/mL

###

# EXPERIMENTAL PROTOCOL: Tmax in rat at 10 mg/kg, po measured after 24 hrs by LC/MS/MS analysis
# Type: ADME, organism-based
# PROTOCOL CONDITIONS: in vivo
PROPERTY LABEL: Tmax (h)
Write it as a number; the unit h goes unstated.

Need Tmax of `Cn1c(=O)cc(N2CCC[C@@H](N)C2)n(Cc2ccccc2C#N)c1=O` , thanks. 2.3

###

# EXPERIMENTAL PROTOCOL: Cmax in iv dosed rat
# Assay type: ADME, organism-based
# Design: route iv
# PROTOCOL CONDITIONS: in vivo
PROPERTY LABEL: Cmax
State the value, then name its unit.

// query Cmax value for entry `N[C@H]1C[C@@H](N2Cc3nn4c(C(F)(F)F)cc(C(F)(F)F)nc4c3C2)CO[C@@H]1c1cc(F)ccc1F` 119 ng/mL

###

# EXPERIMENTAL PROTOCOL: Clearance in rat at 1 mg/kg, iv measured after 0.083 hrs by liquid chromatography tandem mass spectrometry analysis
# Type: ADME, organism-based
# PROTOCOL CONDITIONS: in vivo
PROPERTY LABEL: clearance (mL/min/kg)
Express it in mL/min/kg; write the number only.

# lookup: clearance of `N[C@H]1C[C@@H](N2CC3=C(C2)CS(=O)(=O)C3)CO[C@@H]1c1cc(F)ccc1F` 19

###

# EXPERIMENTAL PROTOCOL: Half life in iv dosed rat
# Format: ADME, organism-based
# PROTOCOL CONDITIONS: in vivo
PROPERTY LABEL: half-life (h)
Please reply with the bare figure in h and do not write the unit itself.

half-life lookup needed for `N[C@H]1C[C@@H](N2Cc3nn4c(C(F)(F)F)cc(C(F)(F)F)nc4c3C2)CO[C@@H]1c1cc(F)ccc1F` , thanks. 25.4

###

# EXPERIMENTAL PROTOCOL: AUC in dog at 3 mg/kg, po measured after 24 hrs by LC/MS/MS analysis
# Type: ADME, organism-based, Canis lupus familiaris
# Design: dose 3 mg/kg, time 24 hrs, route po
# PROTOCOL CONDITIONS: in vivo
PROPERTY LABEL: AUC at 24 h
Your reply should be a number followed by the unit it is expressed in.

What value of AUC at 24 h has been recorded for this entry: Cn1c(=O)cc(N2CCC[C@@H](N)C2)n(Cc2ccccc2C#N)c1=O [ALOGLIPTIN] 1600 ng·h/mL

###

# EXPERIMENTAL PROTOCOL: Cmax in Cynomolgus monkey at 10 mg/kg, po measured after 24 hrs by LC/MS/MS analysis
# Format: ADME, organism-based, Macaca fascicularis
# Set-up: dose 10 mg/kg, time 24 hrs, route po
# PROTOCOL CONDITIONS: in vivo
PROPERTY LABEL: Cmax (ng/mL)
Hi! Could you send only the number? It should be in ng/mL, unit omitted.

Need Cmax, item `Cn1c(=O)cc(N2CCC[C@@H](N)C2)n(Cc2ccccc2C#N)c1=O` 3210
